Test system: MM1S cells
protocol.description: Cell growth inhibition, CellTiter-Glo, 72 h
Type: cell-based
condition.summary: Homo sapiens, MM1.S, 72 h culture, mean of N=2
pIC50: −log10 of the molar value.
measured.attribute: pIC50

[[record]]
molecule = "CNC(=O)N1CCc2c(c(N3CCCc4cc(-c5cnn(C)c5)c(C(F)F)cc43)nn2C2CCN(C(=O)CCl)CC2)C1"
observed_measurement = 9.52

[[record]]
molecule = "CNC(=O)N1CCc2cc(C3CCN(C(=O)CCCCCCCCNc4ccc5c(c4)n(C)c(=O)n5C4CCC(=O)NC4=O)CC3)cc(N3CCCc4cc(-c5cnn(C)c5)c(C(F)F)cc43)c2C1 (centres unmarked)"
observed_measurement = 10.00

[[record]]
molecule = "CNC(=O)N1CCc2cc(C3CCN(CC4CCN(CCOc5cccc6c5CN(C5CCC(=O)NC5=O)C6=O)CC4)CC3)cc(N3CCCc4cc(-c5cnn(C)c5)c(C(F)F)cc43)c2C1 (centres unmarked)"
observed_measurement = 9.55

[[record]]
molecule = "CC(=O)N1Cc2cc(C3CCN(CC4CCN(CCNc5ccc6c(c5)CN(C5CCC(=O)NC5=O)C6=O)CC4)CC3)cc(N3CCCc4cc(-c5cnn(C)c5)c(C(F)F)cc43)c2C1 (centres unmarked)"
observed_measurement = 10.40

[[record]]
molecule = "CC(=O)N1Cc2cc(C3CCN(CC4CCN(c5ccc6c(c5)CN(C5CCC(=O)NC5=O)C6=O)CC4)CC3)cc(N3CCCc4cc(-c5cnn(C)c5)c(C(F)F)cc43)c2C1 (centres unmarked)"
observed_measurement = 9.52


* * *

Parameter pIC50: see the listing below.
Test system: MM1S cells
protocol.description: Cell growth inhibition, CellTiter-Glo, 72 h
Assay type: cell-based
condition.summary: Homo sapiens, MM1.S, 72 h culture, mean of N=2
Procedure: 22RV1, vCap, MM1S and OPM-2 cells were cultured in RPMI-1640 medium (10% fetal bovine serum and 100 units of penicillin/streptomycin dual-antibody per mL were added to RPMI-1640) in a cell incubator at 37°C with 5% CO2, respectively. Cells in logarithmic growth phase were seeded into 96-well cell culture plates at 5×10^3 cells/100 µL/well and cultured overnight. […] Fluorescence signal values were read with a microplate reader. Data were analyzed and graphs were generated using Prism 7.0. […]
pIC50: −log10 of the molar value.
measured.attribute: pIC50

[[record]]
molecule = "CC(=O)N1Cc2cc([C@H]3CC[C@@H](NC(=O)CCl)CC3)cc(N3CCCc4cc(-c5cnn(C)c5)c(C(F)F)cc43)c2C1 [Compound 1361]"
measured_attribute = "pIC50"
observed_measurement = 8.70

[[record]]
molecule = "CC(=O)N1Cc2cc(C3CCOCC3)cc(-c3cccc4cc(-c5ccc(C(=O)N6CCC(Nc7cccc8c7C(=O)N(C7CCC(=O)NC7=O)C8=O)CC6)nc5)ncc34)c2C1 (stereo not drawn) [Compound 2074]"
measured_attribute = "pIC50"
observed_measurement = 6.37

[[record]]
molecule = "C=CS(=O)(=O)N1CCC(c2cc3c(c(N4CCCc5cc(-c6cnn(C)c6)c(C(F)F)cc54)c2)CN(C(=O)NC)C3)CC1 [Compound 1391]"
measured_attribute = "pIC50"
observed_measurement = 6.93


* * *

Test system: MM1S cells
protocol.description: Cell growth inhibition, CellTiter-Glo, 72 h
Type: cell-based
condition.summary: Homo sapiens, MM1.S, 72 h culture, mean of N=2
pIC50: −log10 of the molar value.
measured.attribute: pIC50

[[record]]
molecule = "CNC(=O)N1CCc2cc(C3CCN(CCc4ccc(COc5cccc6c5CN(C5CCC(=O)NC5=O)C6=O)cc4)CC3)cc(N3CCCc4cc(-c5cnn(C)c5)c(C(F)F)cc43)c2C1 (stereo not drawn)"
experimental_target = "MM1S cells"
measured_attribute = "pIC50"
observed_measurement = 9.64

[[record]]
molecule = "CC(=O)N1Cc2cc(C3CCN(C(=O)/C=C/CN(C)C)CC3)cc(N3CCCc4cc(-c5cnn(C)c5)c(C(F)F)cc43)c2C1"
experimental_target = "MM1S cells"
measured_attribute = "pIC50"
observed_measurement = 7.24

[[record]]
molecule = "CC(=O)N1Cc2cc(C3CCN(CCN4CCC(COc5ccc6c(c5)CN(C5CCC(=O)NC5=O)C6=O)CC4)CC3)cc(N3CCCc4cc(-c5cnn(C)c5)c(C(F)F)cc43)c2C1 (stereo not drawn)"
experimental_target = "MM1S cells"
measured_attribute = "pIC50"
observed_measurement = 9.51

[[record]]
molecule = "C=CS(=O)(=O)N1CCC(n2nc(N3CCCc4cc(-c5cnn(C)c5)c(C#N)cc43)c3c2CCN(C(=O)NC)C3)CC1"
experimental_target = "MM1S cells"
measured_attribute = "pIC50"
observed_measurement = 8.30

[[record]]
molecule = "CC(=O)N1Cc2cc([C@H]3CC[C@H](NC(=O)CCl)CC3)cc(N3CCCc4cc(-c5cnn(C)c5)c(C(F)F)cc43)c2C1"
experimental_target = "MM1S cells"
measured_attribute = "pIC50"
observed_measurement = 8.52

[[record]]
molecule = "CNC(=O)N1CCc2c(c(N3CCCc4cc(-c5cnn(C)c5)c(C(F)F)cc43)nn2C2CCOCC2)C1"
experimental_target = "MM1S cells"
measured_attribute = "pIC50"
observed_measurement = 6.98

